These data points were gathered from ChEMBL document CHEMBL1127779.

Biological target: Calpain-2 catalytic subunit (Bos taurus)
Sequence (Q27971 whole entry): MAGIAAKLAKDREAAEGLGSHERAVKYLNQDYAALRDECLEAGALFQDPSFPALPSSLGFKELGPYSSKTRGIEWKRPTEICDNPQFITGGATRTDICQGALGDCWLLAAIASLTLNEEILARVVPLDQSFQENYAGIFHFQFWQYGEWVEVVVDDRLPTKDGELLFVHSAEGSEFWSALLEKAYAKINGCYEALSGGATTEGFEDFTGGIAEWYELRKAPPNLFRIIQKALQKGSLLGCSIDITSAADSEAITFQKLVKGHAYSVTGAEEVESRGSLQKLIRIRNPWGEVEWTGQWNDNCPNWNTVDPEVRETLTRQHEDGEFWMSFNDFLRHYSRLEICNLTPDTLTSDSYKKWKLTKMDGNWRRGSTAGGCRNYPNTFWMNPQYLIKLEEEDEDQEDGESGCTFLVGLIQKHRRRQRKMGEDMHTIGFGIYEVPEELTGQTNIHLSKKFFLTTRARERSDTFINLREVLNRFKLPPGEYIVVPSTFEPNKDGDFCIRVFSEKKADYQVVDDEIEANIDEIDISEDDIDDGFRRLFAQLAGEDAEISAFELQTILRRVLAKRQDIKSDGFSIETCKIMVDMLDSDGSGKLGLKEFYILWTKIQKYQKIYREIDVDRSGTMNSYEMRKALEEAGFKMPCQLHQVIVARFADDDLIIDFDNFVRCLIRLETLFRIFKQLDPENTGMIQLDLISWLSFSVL
Test: Tested for inhibitory activity on bovine calpain 2 from heart
Non-standard residues stand in square brackets, D forms with d. Residues, ends and D or L forms follow the SMILES beside them. ξ: configuration not given here. *: point of attachment. Cbz = O=C(OCc1ccccc1)*; ξNva = CCCC(N)C(=O)O

compound	Ki (nM)
CCCC(NC(=O)[C@H](CC(C)C)NC(=O)OCc1ccccc1)C(=O)NCC (stereo partly drawn) (Cbz-Leu-[ξNva]-NHEt)	50

---

test: Tested for solubility of the compound; format: ADME; conditions: read-out: S

mol	solubility (µg/mL)
CCS(=O)(=O)CCNC(=O)C(=O)[C@@H](Cc1ccccc1)NC(=O)[C@H](CC(C)C)NC(=O)OCc1ccccc1	730
